Parameter: koff. Scope: all listed entries.
- tested-on: T1, Human CD137 extracellular domain (ECD) (human)
- T1 construct: also called Human CD137 ECD; recombinant human CD137
- experiment: SPR Biacore 8K, Ab captured on anti-human Fc, CD137 as analyte, 37 C
- Method: Binding affinity of Dual-Fab antibodies (Dual-Ig) to human CD3 were assessed at 25 degrees C. using Biacore 8K instrument (GE Healthcare). Anti-human Fc (GE Healthcare) was immobilized onto all flow cells of a CM4 sensor chip using amine coupling kit (GE Healthcare). Antibodies were captured onto the anti-Fc sensor surfaces, then recombinant human CD3 or CD137 was injected over the flow cell. […]
// note: answer is a bare numeric in s⁻¹

binder="H1644L0939 (antibody, V domains shown, Dual-Ig with an Fc; also called DualAE16; dBBDu183H1644/dBBDu072L0939) VH: QVQLVESGGGLVQPGRSLRLSCAASGFVFSNVWFHWVRQAPGKGLEWVAQIKDYYNAYAAYYAPSVKGRFTISRDDSKNSIYLQMNSLKTEDTAVYYCHYVHYASASTLLPAEGVDAWGQGTTVTVSS VL: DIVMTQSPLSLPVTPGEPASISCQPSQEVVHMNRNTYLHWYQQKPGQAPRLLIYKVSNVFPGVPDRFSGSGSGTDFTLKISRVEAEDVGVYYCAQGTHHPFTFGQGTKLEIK" measured_result=0.000444
binder="H1595L0581 (antibody, V domains shown, Dual-Ig with an Fc; also called DualAE24; dBBDu183H1595/dBBDu072L0581) VH: QVQLVESGGGLVQPGRSLRLSCAASGFKFSNTWMHWVRQAPGKGLEWVAQIKDKYNAYAAYYAPSVKGRFTISRDDSKNSIYLQMNSLKTEDTAVYYCHYIHYASASTLLPAFGVDAWGQGTTVTVSS VL: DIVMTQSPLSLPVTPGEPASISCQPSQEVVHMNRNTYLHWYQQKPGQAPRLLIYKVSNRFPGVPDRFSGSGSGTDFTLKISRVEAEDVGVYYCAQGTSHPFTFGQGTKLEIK" measured_result=0.00269

Okay, next one:
State the recorded koff for this entry: H1572L0581 (antibody, V domains shown, Dual-Ig with an Fc; also called DualAE26; dBBDu183H1572/dBBDu072L0581) VH: QVQLVESGGGLVQPGRSLRLSCAASGFKFSNVWFHWVRQAPGKGLEWVAQIKDKYNAYAAYYAPSVKGRFTISRDDSKNSIYLQMNSLKTEDTAVYYCHYVHYASASTLLPAEGVDAWGQGTTVTVSS VL: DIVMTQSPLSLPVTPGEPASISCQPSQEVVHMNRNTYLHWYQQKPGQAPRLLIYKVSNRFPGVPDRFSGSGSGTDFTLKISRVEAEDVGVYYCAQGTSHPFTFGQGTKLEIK
0.000722
